Assay: gradient 5% acetonitrile 3 min, to 50% in 2 min, to 85% in 15 min, held 3 min, 100 µL/min
Conditions: column: Zorbax Extend-C18 2.1 x 50 mm; eluents: water / acetonitrile, 0.1% formic acid
Measured Property: RP-LC retention time (s)

Compound | RP-LC retention time (s)
COC(=O)c1cnc(N2CCN(C3CCCCC3)CC2)c2ccccc12 | 683
CCc1noc2nc(C)n(CC(=O)NCc3ccccc3OC)c(=O)c12 | 832
CC1(C)Cc2cccc(OCC(=O)N3CCN(CCn4cccn4)CC3)c2O1 | 583
Cc1cccc(S(=O)(=O)N2CC3CN(C(=O)C4CCCO4)CC(C2)O3)c1 (stereo not given) | 688
CNC(=O)c1cc(Nc2ccc3nc(Nc4ccc(Cl)c(C(F)(F)F)c4)[nH]c3c2)ccn1 | 631
COc1cccc(NC(=O)CSc2cc(N3CCN(c4ccccc4OC)CC3)ncn2)c1 | 938
Cc1nnsc1C(=O)OCc1cc(-c2ccco2)on1 | 850
CCn1cc(CCNC(=O)c2cncc(Br)c2)c2cccnc21 | 699
O=C(NCc1ccc(F)cc1)N1CCCN(c2nc3cccnc3s2)CC1 | 687
O=C(Nc1nnc(SCc2nnc(-c3ccc4c(c3)OCO4)o2)s1)c1ccccc1 | 857
